Let's go through some recorded IC50 values for PI4KIIIB (Bos taurus (Bovine)) together.

Would you please look over these solved cases?
- COc1ccc(-c2sc(N[C@H](C)C3CCCCC3)nc2C)cc1S(=O)(=O)N[C@H]1CC[C@H](O)CC1 [Compound S-193]: < 100 nM
- COc1ccc(-c2sc(NC(C)C)nc2C)cc1S(=O)(=O)N[C@H]1CC[C@H](O)CC1 [Compound S-215]: < 100 nM
- COc1ccc(-c2sc(NC(=O)C3CCCC3)nc2C)cc1S(=O)(=O)N[C@H]1CC[C@H](O)CC1 [Compound S-9]: < 100 nM
- COc1ccc(-c2sc(N[C@H](C)CC3CCCCC3)nc2C)cc1S(=O)(=O)NC1CCNCC1 [Compound S-145]: < 100 nM
- COc1ccc(-c2sc(NC(=O)CC3CCOCC3)nc2C)cc1S(=O)(=O)Nc1ccc(O)cc1C [Compound S-231]: < 100 nM

Given item COc1ncc(-c2sc(NC(=O)CC3CCOCC3)nc2C)cc1S(=O)(=O)Nc1ccc(F)cc1F [Compound S-260] , the value recorded as its IC50 is < 100 nM

Notebook: COc1ccc(-c2sc(NC(=O)CCC3CCCC3)nc2C)cc1S(=O)(=O)NC1CCNCC1 [Compound S-160] , IC50 read as < 100 nM

Noted for COc1ccc(-c2sc(NC(=O)CC3CCCC3)nc2C)cc1S(=O)(=O)N[C@H]1CC[C@H](O)CC1 [Compound S-151] : its IC50 reads < 100 nM

Entry source: patent US11091472B2
